# systemTested: T1, human MSLN-R2-his protein (human, UniProt Q13421 391-486)
# T1 construct: it is put last here; also called human MSLN-R2 protein; hMSLN-R2-his; not shown: His tag
# T1 sequence (Q13421 other isoform, or with tags, fused parts or gaps): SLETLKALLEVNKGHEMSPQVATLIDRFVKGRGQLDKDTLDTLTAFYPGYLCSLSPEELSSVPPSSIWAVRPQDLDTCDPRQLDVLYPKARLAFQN
# assayMethodText: ELISA on coated antigen, no antibody (blank, column 'none')
readoutType: OD450 (OD)
Only the number, expressed in OD, is required.

In: Could you share which OD450 value was measured for S009-F7.11.11 (antibody, human IgG1, kappa, V domains shown, Human-murine chimeric antibody, human IgG1 heavy and kappa light constant regions) VH: EVQLQQSGPELVKPGASVKIPCKASGYTITDYNMDWVKQSRGKSLEWIGDVFPYNGDSIYNQKFEGRATLTVDKYSSTAYMELRGLTSEDTAVYFCARRKTGTGYFDVWGTGTTVTVSS VL: QLVLTQSPAIMSASPGEKVTLTCSASSSVSSTYLSWYLQKPGSSPKLWIYSTSNLASGVPARFSGSGSGTSYSLTISSMEAEDAASYFCHQWSSYPYTFGGGTKLEIKR ?
Out: 0.06
